Test: nonspecific effects on YFP-HEK293 ionomycin response – cell-based, parental YFP-HEK293, YFP quench, counter-screen for TMEM16A inhibitor project (AID 652233);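 further: ratio is mean of duplicate wells from kinetic YFP trace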
Details: parental YFP-HEK293, iodide YFP quench, at 10 µM
Hit rate of the full screen: of about 2,300 compounds, fewer than 10 were called active. A selection follows.

- COMPOUND: "CCCOc1ccc(Cc2c(Cl)nc(SC)nc2NC)cc1"
  YFP ratio F(max-min)/F0: -1.09
- COMPOUND: "Cc1nc(CNS(=O)(=O)c2ccc(Oc3ccccc3)cc2)cs1"
  YFP ratio F(max-min)/F0: -1.1
- COMPOUND: "Cc1ccc2c(c1)N(CC(=O)N1CCCc3ccccc31)C(=O)C(C)O2 (stereo unspecified)"
  YFP ratio F(max-min)/F0: -1.08
- COMPOUND: "Cc1ccc(NC(=O)C(C)c2cccc(C(=O)c3ccccc3)c2)cc1 (stereo unspecified)"
  YFP ratio F(max-min)/F0: -1.26
- COMPOUND: "Cc1nc2c(C(=O)NCc3ccc4c(c3)OCO4)c[nH]n2c(=O)c1Cc1ccccc1F"
  YFP ratio F(max-min)/F0: -1.21
- COMPOUND: "O=C(O)c1ccc(NC(=O)C2CCCCC2)cc1"
  YFP ratio F(max-min)/F0: -1.22
- COMPOUND: "COc1ccc(NC(=O)C2=CC(c3ccc(OC)c(OC)c3)=NS(=O)(=O)N2C)cc1"
  YFP ratio F(max-min)/F0: -1.13
- COMPOUND: "CCCCn1ccnc1C(=O)c1cccc(S(=O)(=O)N2c3ccccc3CC2C)c1 (stereo unspecified)"
  YFP ratio F(max-min)/F0: -1.39
- COMPOUND: "Cc1cccc(N=Nc2c(O)[nH]c3ccc(F)cc23)c1"
  YFP ratio F(max-min)/F0: -0.957
- COMPOUND: "c1ccc(-c2nnc(SCc3nc4ccccc4[nH]3)o2)cc1"
  YFP ratio F(max-min)/F0: -1.02
- COMPOUND: "O=S1(=O)CCN(Cc2ccccc2Cl)CC1"
  YFP ratio F(max-min)/F0: -0.979

* * *

Here, each record is paired with measured YFP ratio F(max-min)/F0 data.
Test: nonspecific effects on YFP-HEK293 ionomycin response – cell-based, parental YFP-HEK293, YFP quench, counter-screen for TMEM16A inhibitor project (AID 652233);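 further: ratio is mean of duplicate wells from kinetic YFP trace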
Details: parental YFP-HEK293, iodide YFP quench, at 10 µM
The whole screen tested about 2,300 compounds, of which fewer than 10 were called active. These entries were drawn from the full list.

- MOLECULE: "CSc1nnc2c(n1)OC(c1ccsc1)N(C(C)=O)c1ccccc1-2 (stereo unspecified)"
  YFP ratio F(max-min)/F0: -1.24
- MOLECULE: "COc1ccc(CCC(=O)c2ccc(OC)cc2)cc1"
  YFP ratio F(max-min)/F0: -1.35
- MOLECULE: "N#Cc1nc(N)nc(N(c2ccccc2)c2ccccc2)n1"
  YFP ratio F(max-min)/F0: -1.24
- MOLECULE: "S=C(NCc1ccc(Cl)cc1)NC12CC3CC(CC(C3)C1)C2"
  YFP ratio F(max-min)/F0: -1.22
- MOLECULE: "CC1CCN(C(=O)c2ccc(CSc3ccc(Cl)cc3)cc2)CC1"
  YFP ratio F(max-min)/F0: -0.991
- MOLECULE: "COc1ccc(CN(C)C(=O)CC(c2ccccc2)c2ccccc2)cc1"
  YFP ratio F(max-min)/F0: -1.04
